system: IMR-32 cells; assay: Cell viability assay, IMR-32; type: cell-based, human; settings: 24, 48 and 72 hr

Compound	cell viability (OD490 nm)
C[Se]CC(NC(=O)CCC(N)C(=O)O)C(=O)O (stereo not shown)	lack of toxic effects
Nc1ncnc2c1ncn2[C@@H]1O[C@H](C[Se]CC[C@@H](N)C(=O)O)C(O)C1O (stereo partly shown)	lack of toxic effects
